Provenance of the data: patent US3996359A

tested on: rats subjected to adrenalectomy (granuloma around implanted cotton wads); experiment: granulom test (cotton-pellet test) on rats subjected to adrenalectomy: granuloma growth, thymus weight, body weight increase; assay type: in vivo, rat (Sprague-Dawley); settings: rat, in vivo
observable: ED50 thymus weight inhibition (µg/animal)
One number for each entry, in µg/animal.

Previously resolved entries follow.
compound	ED50 thymus weight inhibition [µg/animal]
CCCCC(=O)OCC(=O)[C@@]12OC(C)O[C@@H]1C[C@H]1[C@@H]3CCC4=CC(=O)C=C[C@]4(C)[C@@]3(F)[C@@H](O)C[C@@]12C (single isomer, unassigned) [18 B]	10
CCCC1O[C@@H]2C[C@H]3[C@@H]4CCC5=CC(=O)C=C[C@]5(C)[C@H]4[C@@H](O)C[C@]3(C)[C@]2(C(=O)COC(=O)c2cc3ccccc3o2)O1 (single isomer, unassigned) [28 A]	100

Okay, next one:
Asked: Requested field: ED50 thymus weight inhibition. Item: CC1O[C@@H]2C[C@H]3[C@@H]4C[C@H](F)C5=CC(=O)C=C[C@]5(C)[C@@]4(F)[C@@H](O)C[C@]3(C)[C@]2(C(=O)COC(=O)c2cc3ccccc3o2)O1 (stereo partly drawn) [23 A]
Given back: 10

----------
Kindly supply the reported Dose required to obtain 25% inhibition of Body weight Increase values for the records listed here.
test system: rats subjected to adrenalectomy (granuloma around implanted cotton wads); experiment: granulom test (cotton-pellet test) on rats subjected to adrenalectomy: granuloma growth, thymus weight, body weight increase; format: in vivo, rat (Sprague-Dawley); conditions: rat, in vivo, 11520 min

compound	system name	value reported
CCCCCC1O[C@@H]2C[C@H]3[C@@H]4CCC5=CC(=O)C=C[C@]5(C)[C@H]4[C@@H](O)C[C@]3(C)[C@]2(C(=O)CO)O1 (stereo partly shown) [13 A+B]	rats subjected to adrenalectomy (granuloma around implanted cotton wads)	90 γ/animal
CCCCCC1O[C@@H]2C[C@H]3[C@@H]4CCC5=CC(=O)C=C[C@]5(C)[C@@]4(F)[C@@H](O)C[C@]3(C)[C@]2(C(=O)CO)O1 (single isomer, unassigned) [5 B]	rats subjected to adrenalectomy (granuloma around implanted cotton wads)	> 270 γ/animal
CCCCCC1O[C@@H]2C[C@H]3[C@@H]4CCC5=CC(=O)C=C[C@]5(C)[C@@]4(F)[C@@H](O)C[C@]3(C)[C@]2(C(=O)CO)O1 (single isomer, unassigned) [5 A]	rats subjected to adrenalectomy (granuloma around implanted cotton wads)	> 270 γ/animal
CCCC1O[C@@H]2C[C@H]3[C@@H]4C[C@H](F)C5=CC(=O)C=C[C@]5(C)[C@@]4(F)[C@@H](O)C[C@]3(C)[C@]2(C(=O)COC(=O)c2cc3ccccc3o2)O1 (single isomer, unassigned) [25 B]	rats subjected to adrenalectomy (granuloma around implanted cotton wads)	20 γ/animal

Dear colleague, could you please provide Dose required to obtain 25% inhibition of Body weight Increase for the compounds listed below?
1. CCCC1OC2CC3C4CCC5=CC(=O)C=CC5(C)C4C(O)CC3(C)C2(C(=O)COC(C)=O)O1 (mixture of isomers)
2. CCCC1O[C@@H]2C[C@H]3[C@@H]4CCC5=CC(=O)C=C[C@]5(C)[C@@]4(F)[C@@H](O)C[C@]3(C)[C@]2(C(=O)COC(=O)c2cc3ccccc3o2)O1 (single isomer, unassigned) [20 B]
3. CCCC1OC2CC3C4CC(F)C5=CC(=O)C=CC5(C)C4(F)C(O)CC3(C)C2(C(=O)COC(=O)c2cc3ccccc3o2)O1 (mixture of isomers)
4. CCCCCC1OC2CC3C4CCC5=CC(=O)C=CC5(C)C4(F)C(O)CC3(C)C2(C(=O)CO)O1 (mixture of isomers)
5. CCCCC(=O)OCC(=O)[C@@]12OC(CCC)O[C@@H]1C[C@H]1[C@@H]3CCC4=CC(=O)C=C[C@]4(C)[C@@]3(F)[C@@H](O)C[C@@]12C (single isomer, unassigned) [22 A]
6. CC1O[C@@H]2C[C@H]3[C@@H]4CCC5=CC(=O)C=C[C@]5(C)[C@@]4(F)[C@@H](O)C[C@]3(C)[C@]2(C(=O)COC(=O)c2cc3ccccc3o2)O1 (stereo partly shown) [16 B]
7. CC1(C)O[C@@H]2C[C@H]3[C@@H]4C[C@H](F)C5=CC(=O)C=C[C@]5(C)[C@@]4(F)[C@@H](O)C[C@]3(C)[C@]2(C(=O)CO)O1 [Fluocinolone acetonide, reference compound]
8. CCCC1O[C@@H]2C[C@H]3[C@@H]4CCC5=CC(=O)C=C[C@]5(C)[C@H]4[C@@H](O)C[C@]3(C)[C@]2(C(=O)CO)O1 (single isomer, unassigned) [12 B]

Given back:
40 γ/animal
5 γ/animal
10 γ/animal
> 270 γ/animal
33 γ/animal
10 γ/animal
20 γ/animal
50 γ/animal

Asked: Requested field: Dose required to obtain 25% inhibition of Body weight Increase. Item: CCCC1OC2CC3C4CCC5=CC(=O)C=CC5(C)C4(F)C(O)CC3(C)C2(C(=O)COC(=O)c2cc3ccccc3o2)O1 (mixture of isomers)
Given back: 20 γ/animal

----------
Kindly supply the reported Dose required to obtain 25% inhibition of Body weight Increase values for the records listed here.
test system: rats subjected to adrenalectomy (granuloma around implanted cotton wads); assay: granulom test (cotton-pellet test) on rats subjected to adrenalectomy: granuloma growth, thymus weight, body weight increase; format: in vivo, rat (Sprague-Dawley); conditions: rat, in vivo, 11520 min

compound	value reported
CCCCCC1O[C@@H]2C[C@H]3[C@@H]4CCC5=CC(=O)C=C[C@]5(C)[C@H]4[C@@H](O)C[C@]3(C)[C@]2(C(=O)CO)O1 (single isomer, unassigned) [13 A]	100 γ/animal

Dear colleague, could you please provide Dose required to obtain 25% inhibition of Body weight Increase for the compounds listed below?
1. CC1O[C@@H]2C[C@H]3[C@@H]4CCC5=CC(=O)C=C[C@]5(C)[C@@]4(F)[C@@H](O)C[C@]3(C)[C@]2(C(=O)COC(=O)c2cc3ccccc3o2)O1 (some centres unmarked) [16 A]
2. CCCCC(=O)OCC(=O)C12OC(CCC)OC1CC1C3CCC4=CC(=O)C=CC4(C)C3(F)C(O)CC12C (mixture of isomers) [22 A+B]
3. CC1O[C@@H]2C[C@H]3[C@@H]4CCC5=CC(=O)C=C[C@]5(C)[C@@]4(F)[C@@H](O)C[C@]3(C)[C@]2(C(=O)CO)O1 (single isomer, unassigned) [1 B]
4. CCCC1O[C@@H]2C[C@H]3[C@@H]4CCC5=CC(=O)C=C[C@]5(C)[C@@]4(F)[C@@H](O)C[C@]3(C)[C@]2(C(=O)COC(=O)c2cccnc2)O1 (single isomer, unassigned) [21 B]
5. CCCCC(=O)OCC(=O)[C@@]12OC(C)O[C@@H]1C[C@H]1[C@@H]3CCC4=CC(=O)C=C[C@]4(C)[C@@]3(F)[C@@H](O)C[C@@]12C (single isomer, unassigned) [18 B]

Given back:
["> 45 γ/animal", "30 γ/animal", "30 γ/animal", "5 γ/animal", "10 γ/animal"]

Dear colleague, could you please provide Dose required to obtain 25% inhibition of Body weight Increase for the compounds listed below?
1. CCCCCC1O[C@@H]2C[C@H]3[C@@H]4CCC5=CC(=O)C=C[C@]5(C)[C@H]4[C@@H](O)C[C@]3(C)[C@]2(C(=O)CO)O1 (single isomer, unassigned) [13 B]
2. CCCC1O[C@@H]2C[C@H]3[C@@H]4CCC5=CC(=O)C=C[C@]5(C)[C@H]4[C@@H](O)C[C@]3(C)[C@]2(C(=O)COC(C)=O)O1 (single isomer, unassigned) [27 B]
3. CCCCC1OC2CC3C4CCC5=CC(=O)C=CC5(C)C4(F)C(O)CC3(C)C2(C(=O)CO)O1 (mixture of isomers) [4 A+B]

Given back:
1: > 270 γ/animal; 2: 35 γ/animal; 3: 170 γ/animal

Dear colleague, could you please provide Dose required to obtain 25% inhibition of Body weight Increase for the compounds listed below?
1. CC1O[C@@H]2C[C@H]3[C@@H]4C[C@H](F)C5=CC(=O)C=C[C@]5(C)[C@@]4(F)[C@@H](O)C[C@]3(C)[C@]2(C(=O)CO)O1 (single isomer, unassigned) [7 A]
2. CCCCC(=O)OCC(=O)[C@@]12OC(C)O[C@@H]1C[C@H]1[C@@H]3CCC4=CC(=O)C=C[C@]4(C)[C@@]3(F)[C@@H](O)C[C@@]12C (single isomer, unassigned) [18 A]

Given back:
20 γ/animal
33 γ/animal

----------
Kindly supply the reported ED50 thymus weight inhibition values for the records listed here.
Test system: rats subjected to adrenalectomy (granuloma around implanted cotton wads)
Experiment: granulom test (cotton-pellet test) on rats subjected to adrenalectomy: granuloma growth, thymus weight, body weight increase
Type: in vivo, rat (Sprague-Dawley)
Details: rat, in vivo
From the text: In the following this active stereoisomeric component will always be designated B. As regards the steroids referred to in connection with the present invention the stereoisomeric mixture as well as the individual stereoisomeric components A and B have been investigated with regard to antiinflammatory activity in granulom test on rats subjected to adrenalectomy. The experimental procedure used corresponds largely to that described by G. Engelhardt: Arzneimittel-Forschung, 13, p. 588, 1963. […]
Numbers only, in µg/animal.

Previously resolved entries follow.
compound	observable	display unit	value reported
CCCCC(=O)OCC(=O)[C@@]12OC(C)O[C@@H]1C[C@H]1[C@@H]3CCC4=CC(=O)C=C[C@]4(C)[C@@]3(F)[C@@H](O)C[C@@]12C (single isomer, unassigned) [18 A]	ED50 thymus weight inhibition	µg/animal	70
CCCC1O[C@@H]2C[C@H]3[C@@H]4C[C@H](F)C5=CC(=O)C=C[C@]5(C)[C@@]4(F)[C@@H](O)C[C@]3(C)[C@]2(C(=O)COC(=O)c2cc3ccccc3o2)O1 (single isomer, unassigned) [25 B]	ED50 thymus weight inhibition	µg/animal	7
CCCC1O[C@@H]2C[C@H]3[C@@H]4CCC5=CC(=O)C=C[C@]5(C)[C@@]4(F)[C@@H](O)C[C@]3(C)[C@]2(C(=O)COC(=O)c2cc3ccccc3o2)O1 (single isomer, unassigned) [20 B]	ED50 thymus weight inhibition	µg/animal	20
CCCC1O[C@@H]2C[C@H]3[C@@H]4C[C@H](F)C5=CC(=O)C=C[C@]5(C)[C@@]4(F)[C@@H](O)C[C@]3(C)[C@]2(C(=O)COC(=O)c2cc3ccccc3o2)O1 (single isomer, unassigned) [25 A]	ED50 thymus weight inhibition	µg/animal	15

Okay, next one:
Asked: # value lookup — system rats subjected to adrenalectomy (granuloma around implanted cotton wads), readout ED50 thymus weight inhibition, item CCCCC(=O)OCC(=O)[C@@]12OC(CCC)O[C@@H]1C[C@H]1[C@@H]3CCC4=CC(=O)C=C[C@]4(C)[C@@]3(F)[C@@H](O)C[C@@]12C (single isomer, unassigned) [22 B]
Given back: 35
